target: T1, HLA-A*0201 on T2 cells (human); assay: T2 cell binding assay, flow cytometry
T1 construct: whole, on cells; also called HLA-A2
pEC50: −log10 of the molar value. Numbered stars: 1 amine (or outer) side, 2 acyl side, 3 side chain; on linkers, the order of the positions; unused ones are H or OH. Square brackets hold non-standard residues; d marks the D form. Ends that are not written are not given here. O‑methyltyrosine = COc1ccc(C[C@H](N[*:1])C(=O)[*:2])cc1; Phg = N[C@H](C(=O)O)c1ccccc1
pEC50 of 5 or higher: y. Under 5: n.

{"columns": ["binder", "group"],
 "data": [
  ["XASEKIFYV (β-(3-benzothienyl)-alanine at position 41 (P1)) [SSX2 41-49 (K41(b-(3-benzothienyl)Ala))]", "n"],
  ["[Phg]ASEKIFYV [SSX2 41-49 (K41(Phg))]", "y"],
  ["[O‑methyltyrosine]ASEKIFYV [SSX2 41-49 (K41(O-methyl Tyr))]", "n"]
]}
